assay: physchem
assayContext: buffer, pH 7.3
measure: solubility (µM)
Express the result in µM but write the number alone.

| structureNotation | solubility (µM) |
| --- | --- |
| O=C1c2c(c(C(=O)N3CCOCC3)c3cccnc3c2O)CN1Cc1ccc(F)cc1 | 97 |
| O=C(NCc1ccccn1)c1c2c(c(O)c3ncccc13)C(=O)N(Cc1ccc(F)cc1)C2 | 36 |

Here is the next item to consider.
-- ask Recorded solubility of CN(C)C(=O)Oc1c2c(c(O)c3ncccc13)C(=O)N(Cc1ccc(F)cc1)C2=O , please.
-- reply 2.5

---

Below, each of the molecules is paired with its reported EC50 value.
Tested on: Human immunodeficiency virus 1
assay: Antiviral activity against HIV1 3B in MT4 cells
Format: functional, organism-based
assayContext: Human immunodeficiency virus 1, 3B

-- ask Param readout = EC50; param system = Human immunodeficiency virus 1; param query = CCOc1ccc(-c2c3c(c(O)c4ncccc24)C(=O)N(Cc2ccc(F)cc2)C3)cc1 ; response: value
-- reply 780 nM

-- ask Follow-up entry: COc1c2c(c(O)c3ncccc13)C(=O)N(Cc1ccc(F)cc1)C2
-- reply 89 nM

-- ask Would you mind doing O=C1c2c(c(-c3c(F)cccc3F)c3cccnc3c2O)CN1Cc1ccc(F)cc1 as well?
-- reply 11 nM

-- ask Okay, and O=C(NCc1ccc(F)cc1)c1ccc2cccnc2c1O ?
-- reply > 10000 nM

-- ask Here is the next molecule: CN(C)C(=O)Oc1c2c(c(O)c3ncccc13)C(=O)N(Cc1ccc(F)cc1)C2
-- reply 3 nM

-- ask Thanks! And CCOC(=O)c1ccccc1-c1c2c(c(O)c3ncccc13)C(=O)N(Cc1ccc(F)cc1)C2 ?
-- reply 70 nM

-- ask And then CCOC(=O)c1cccc(-c2c3c(c(O)c4ncccc24)C(=O)N(Cc2ccc(F)cc2)C3)c1 , what is it?
-- reply 340 nM

-- ask Then what about the molecule COc1c2c(c(O)c3ncccc13)C(=O)N(Cc1ccc(F)cc1)C2=O ?
-- reply 7500 nM

Attribution: ChEMBL document CHEMBL1138966
